# Tested on: SK-LU-1
# METHOD_SUMMARY: Growth inhibition of human SKLU1 cells at 50 uM after 48 hrs by SRB assay relative to control
# Assay type: functional
# MEASUREMENT_PARAMETERS: SK-LU-1, 48 h, read-out: GI
Listing of recorded inhibition of growth at 50 µM by entry.
Write the number in % without appending the unit.

>  <STRUCTURE_AS_SMILES>
C[C@]12CC[C@H](OC(=O)c3ccc(C(F)(F)F)cc3)CC1=CC[C@@H]1[C@@H]2CC[C@]2(C)C(n3cccn3)=C(C=O)C[C@@H]12

>  <QUANTITATIVE_RESULT>
73.3

$$$$
>  <STRUCTURE_AS_SMILES>
COc1ccc(C(=O)O[C@H]2CC[C@@]3(C)C(=CC[C@@H]4[C@@H]3CC[C@]3(C)C(n5cccn5)=C(C=O)C[C@@H]43)C2)cc1

>  <QUANTITATIVE_RESULT>
80

$$$$
>  <STRUCTURE_AS_SMILES>
C[C@]12CC[C@H](OC(=O)C3CC3)CC1=CC[C@@H]1[C@@H]2CC[C@]2(C)C(n3cncn3)=C(C=O)C[C@@H]12

>  <QUANTITATIVE_RESULT>
100

$$$$

Alright, here's another compound for you.
*Q* What inhibition of growth at 50 µM value was documented for this compound, "C[C@]12CC[C@H](OC(=O)c3ccc(I)cc3)CC1=CC[C@@H]1[C@@H]2CC[C@]2(C)C(n3cccn3)=C(C=O)C[C@@H]12" ?
*A* 93.5

* * *

# Tested on: MCF7
# METHOD_SUMMARY: Growth inhibition of human MCF7 cells at 50 uM after 48 hrs by SRB assay relative to control
# Format: functional
# MEASUREMENT_PARAMETERS: MCF7, 48 h, read-out: GI
Kindly return Met if reported inhibition of growth at 50 µM is no lower than 30%; return Not met if it is lower.

# example entries with known answers
>  <STRUCTURE_AS_SMILES>
C[C@]12CC[C@H](OC(=O)c3ccc(Cl)cc3)CC1=CC[C@@H]1[C@@H]2CC[C@]2(C)C(n3cccn3)=C(C=O)C[C@@H]12

>  <CLASS_LABEL>
Met

$$$$
>  <STRUCTURE_AS_SMILES>
C[C@]12CC[C@H](OC(=O)c3ccccc3)CC1=CC[C@@H]1[C@@H]2CC[C@]2(C)C(n3cncn3)=C(C=O)C[C@@H]12

>  <CLASS_LABEL>
Met

$$$$
>  <STRUCTURE_AS_SMILES>
Cc1ccc(C(=O)O[C@H]2CC[C@@]3(C)C(=CC[C@@H]4[C@@H]3CC[C@]3(C)C(n5cccn5)=C(C=O)C[C@@H]43)C2)cc1

>  <CLASS_LABEL>
Not met

$$$$
>  <STRUCTURE_AS_SMILES>
C[C@]12CC[C@H](OC(=O)C3CCC3)CC1=CC[C@@H]1[C@@H]2CC[C@]2(C)C(n3cncn3)=C(C=O)C[C@@H]12

>  <CLASS_LABEL>
Not met

$$$$
>  <STRUCTURE_AS_SMILES>
C[C@]12CC[C@H](OC(=O)c3ccc(Br)cc3)CC1=CC[C@@H]1[C@@H]2CC[C@]2(C)C(n3cccn3)=C(C=O)C[C@@H]12

>  <CLASS_LABEL>
Not met

$$$$
>  <STRUCTURE_AS_SMILES>
C[C@]12CC[C@H](OC(=O)c3ccc(C#N)cc3)CC1=CC[C@@H]1[C@@H]2CC[C@]2(C)C(n3cncn3)=C(C=O)C[C@@H]12

>  <CLASS_LABEL>
Met

$$$$

*Q* Threshold query (inhibition of growth at 50 µM >= 30%) on "C[C@]12CC[C@H](OC(=O)C3CCCCCC3)CC1=CC[C@@H]1[C@@H]2CC[C@]2(C)C(n3cncn3)=C(C=O)C[C@@H]12"
*A* Met

*Q* Threshold query (inhibition of growth at 50 µM >= 30%) on "C[C@]12CC[C@H](OC(=O)c3ccc(C(F)(F)F)cc3)CC1=CC[C@@H]1[C@@H]2CC[C@]2(C)C(n3cccn3)=C(C=O)C[C@@H]12"
*A* Not met

Each recorded value in this set is attributed to ChEMBL document CHEMBL2424552.
